Values were extracted from ChEMBL document CHEMBL6071131.

study-system: Mitogen-activated protein kinase 1 (Homo sapiens)
test: Inhibition of human ERK2 assessed as residual activity at 50 uM relative to control
Parameter threshold = 70%. Response is yes (1) when Activity meets or exceeds it, else no (0).

>>> class_assignment("Cc1ccc(S(=O)(=O)N2CC(CCn3cnc4c(Cl)nc(Cl)nc43)Oc3ccc(Br)cc32)cc1 (stereo not given)")
"no (0)"
>>> class_assignment("Cc1ccc(S(=O)(=O)N2CC(CCn3cnc4c(Cl)nc(Cl)nc43)Oc3cc(Cl)ccc32)cc1 (stereo not given)")
"yes (1)"
>>> class_assignment("Cc1ccc(S(=O)(=O)N2CC(CCn3cnc4c(Br)ncnc43)Oc3ccc(C)cc32)cc1 (stereo not given)")
"yes (1)"
>>> class_assignment("Cc1ccc(S(=O)(=O)N2CC(CCn3cnc4c(Cl)nc(Cl)nc43)Oc3ccc(C)cc32)cc1 (stereo not given)")
"yes (1)"

====

study-system: Mitogen-activated protein kinase 8 (Homo sapiens)
test: Inhibition of human JNK1 assessed as residual activity at 5 uM relative to control
Activity less than 90% is t; Activity greater than or equal to 90% is f.

>>> class_assignment("Cc1ccc(S(=O)(=O)N2CC(CCn3cnc4c(Cl)nc(Cl)nc43)Oc3cc(Cl)ccc32)cc1 (stereo not given)")
"t"
>>> class_assignment("Cc1ccc(S(=O)(=O)N2CC(CCn3cnc4c(Cl)nc(Cl)nc43)Oc3ccc(C)cc32)cc1 (stereo not given)")
"f"
>>> class_assignment("Cc1ccc(S(=O)(=O)N2CC(CCn3cnc4c(Br)ncnc43)Oc3ccc(C)cc32)cc1 (stereo not given)")
"t"
